target.or.test.system: Poly [ADP-ribose] polymerase 1 (Homo sapiens)
Sequence (P09874 whole entry): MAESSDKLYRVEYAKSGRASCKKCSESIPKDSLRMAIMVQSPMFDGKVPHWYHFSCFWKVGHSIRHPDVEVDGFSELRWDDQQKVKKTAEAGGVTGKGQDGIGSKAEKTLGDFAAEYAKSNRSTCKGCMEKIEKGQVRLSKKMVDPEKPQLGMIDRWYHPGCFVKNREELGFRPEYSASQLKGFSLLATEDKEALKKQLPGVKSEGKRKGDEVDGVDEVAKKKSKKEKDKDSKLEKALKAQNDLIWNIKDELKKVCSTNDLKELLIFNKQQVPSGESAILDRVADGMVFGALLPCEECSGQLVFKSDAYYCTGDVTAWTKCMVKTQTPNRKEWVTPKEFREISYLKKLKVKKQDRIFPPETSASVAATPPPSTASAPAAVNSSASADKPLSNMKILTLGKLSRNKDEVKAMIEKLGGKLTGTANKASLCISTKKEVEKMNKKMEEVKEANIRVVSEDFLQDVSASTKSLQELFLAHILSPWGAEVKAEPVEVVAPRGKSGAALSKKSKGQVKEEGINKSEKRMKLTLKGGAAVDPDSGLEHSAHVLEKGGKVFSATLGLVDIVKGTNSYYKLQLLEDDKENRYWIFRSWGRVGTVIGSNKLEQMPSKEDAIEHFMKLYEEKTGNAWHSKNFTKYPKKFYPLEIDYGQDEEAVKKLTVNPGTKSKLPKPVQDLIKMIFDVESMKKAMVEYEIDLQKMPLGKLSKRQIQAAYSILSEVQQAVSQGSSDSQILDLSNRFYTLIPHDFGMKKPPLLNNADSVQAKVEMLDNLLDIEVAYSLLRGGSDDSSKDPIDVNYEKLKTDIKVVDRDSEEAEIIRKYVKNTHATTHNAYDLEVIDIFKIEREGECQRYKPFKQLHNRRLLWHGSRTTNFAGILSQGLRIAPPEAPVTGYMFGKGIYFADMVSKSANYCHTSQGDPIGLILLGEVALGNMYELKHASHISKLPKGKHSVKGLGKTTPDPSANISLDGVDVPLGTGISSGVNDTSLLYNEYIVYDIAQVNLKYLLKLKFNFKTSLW
condition.set: dose 10.0 nM, time 45.0 min
Reported inhibition values for the following compounds.
Return type: number; implicit unit %.

Use the examples below as a reference point.
COc1ccc(NC(=O)c2ccc(NC(=O)C3CCN(C(=O)c4cc(Cc5n[nH]c(=O)c6ccccc56)ccc4F)CC3)cc2)cc1 : 97
O=C(Nc1cccc2cccnc12)c1ccc(NC(=O)N2CCN(C(=O)c3cc(Cc4n[nH]c(=O)c5ccccc45)ccc3F)CC2)cc1 : 96
Cc1ccccc1NC(=O)c1ccc(NC(=O)N2CCN(C(=O)c3cc(Cc4n[nH]c(=O)c5ccccc45)ccc3F)CC2)cc1 : 99
O=C(Nc1ccc(C(F)(F)F)cc1)c1ccc(NC(=O)N2CCN(C(=O)c3cc(Cc4n[nH]c(=O)c5ccccc45)ccc3F)CC2)cc1 : 98
Cc1ccc(NC(=O)c2ccc(NC(=O)N3CCN(C(=O)c4cc(Cc5n[nH]c(=O)c6ccccc56)ccc4F)CC3)cc2)cc1 : 99

Q: Need inhibition of `O=C(Nc1cccc(F)c1)c1ccc(NC(=O)N2CCN(C(=O)c3cc(Cc4n[nH]c(=O)c5ccccc45)ccc3F)CC2)cc1` , thanks.
A: 98

Q: Need inhibition of `O=C(Nc1ccccc1F)c1ccc(NC(=O)N2CCN(C(=O)c3cc(Cc4n[nH]c(=O)c5ccccc45)ccc3F)CC2)cc1` , thanks.
A: 99

These measurements were taken from ChEMBL document CHEMBL5120857.
